Recorded values, source ChEMBL document CHEMBL3399915.

- ASSAY NOTES: Plasma protein binding in mouse by equilibrium dialysis method
- Format: ADME, cell-free
- CONDITION INFO: read-out: PPB (converted)
EXPERIMENTAL READOUT: fraction unbound
Number only, please.

Q: I would be grateful if you could share the reported fraction unbound for Cc1ccc(-c2ccc([C@H](CO)NC(=O)[C@H]3C[C@@H]3c3cccs3)cc2)cc1 .
Result: 0.036

----------
- ASSAY NOTES: Plasma concentration in rat at 30 mg/kg, ip after 30 mins
- Type: ADME, organism-based
- Design: dose 30 mg/kg, route intraperitoneal
EXPERIMENTAL READOUT: concentration at 0.5 h (µM)
Form entry: value (µM) — number only.

Q: I would be grateful if you could share the reported concentration at 0.5 h for CC[C@H](C)COc1ccc([C@H](CO)NC(=O)[C@H]2C[C@@H]2c2cccs2)cc1 .
Result: 5.27

----------
- ASSAY NOTES: Clearance in mouse at 10 mg/kg, ip
- Format: ADME, organism-based
- Parameters: dose 10 mg/kg, route intraperitoneal
- CONDITION INFO: in vivo
EXPERIMENTAL READOUT: CL/F (mL/min/kg)
Form entry: value (mL/min/kg) — number only.

Q: I would be grateful if you could share the reported CL/F for CC[C@H](C)COc1ccc([C@H](CO)NC(=O)[C@H]2C[C@@H]2c2cccs2)cc1 .
Result: 144

Q: Moving on to the next compound: CC(C)COc1ccc([C@H](CO)NC(=O)[C@H]2C[C@@H]2c2cccs2)cc1
Result: 176

Q: Moving on to the next compound: CC[C@H](C)COc1ccc([C@H](CN)NC(=O)[C@@H](C)c2ccccc2)cc1
Result: 66

----------
- ASSAY NOTES: Ratio of drug level in brain to plasma in mouse at 1 mg/kg, iv after 30 mins
- Format: ADME, organism-based
- Parameters: dose 1 mg/kg, route intravenous
- CONDITION INFO: brain and plasma, read-out: BPR
EXPERIMENTAL READOUT: Kp at 0.5 h
Number only, please.

Q: I would be grateful if you could share the reported Kp at 0.5 h for Cc1ccc(-c2ccc([C@H](CO)NC(=O)[C@H]3C[C@@H]3c3cccs3)cc2)cc1 .
Result: 2

----------
- ASSAY NOTES: Drug uptake in rat brain at 30 mg/kg, ip after 30 mins
- Format: ADME, organism-based
- Design: dose 30 mg/kg, route intraperitoneal
- CONDITION INFO: read-out: Drug uptake
EXPERIMENTAL READOUT: concentration at 0.5 h (µM)
Form entry: value (µM) — number only.

Q: I would be grateful if you could share the reported concentration at 0.5 h for CC[C@H](C)COc1ccc([C@H](CO)NC(=O)[C@H]2C[C@@H]2c2cccs2)cc1 .
Result: 5.54

----------
- ASSAY NOTES: Plasma protein binding in rat by equilibrium dialysis method
- Format: ADME, cell-free
- CONDITION INFO: read-out: PPB (converted)
EXPERIMENTAL READOUT: fraction unbound
Number only, please.

Q: I would be grateful if you could share the reported fraction unbound for Cc1ccc(-c2ccc([C@H](CO)NC(=O)[C@H]3C[C@@H]3c3cccs3)cc2)cc1 .
Result: 0.025

----------
Kindly supply the reported EC50 values for the records listed here.
- SYSTEM TESTED: G protein-coupled receptor 88 (Homo sapiens, UniProt Q9GZN0)
- Sequence (Q9GZN0 whole entry): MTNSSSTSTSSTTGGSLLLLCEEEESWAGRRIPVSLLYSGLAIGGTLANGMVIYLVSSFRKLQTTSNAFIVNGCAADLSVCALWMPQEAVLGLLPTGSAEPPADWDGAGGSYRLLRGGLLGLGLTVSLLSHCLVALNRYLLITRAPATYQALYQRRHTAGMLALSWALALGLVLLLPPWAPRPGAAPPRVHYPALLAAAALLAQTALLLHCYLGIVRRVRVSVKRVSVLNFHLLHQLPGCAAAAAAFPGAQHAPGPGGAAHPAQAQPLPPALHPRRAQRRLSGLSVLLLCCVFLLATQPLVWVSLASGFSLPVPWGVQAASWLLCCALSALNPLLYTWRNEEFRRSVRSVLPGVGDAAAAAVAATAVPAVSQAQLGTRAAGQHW
- ASSAY NOTES: Agonist activity at GPR88 (unknown origin) transfected in forskolin-stimulated HEK cells assessed as inhibition of cAMP production after 30 mins by HTRF method relative to control
- Assay type: functional, cell-based, HEK293
Form entry: value (nM) — number only.

Q: I would be grateful if you could share the reported EC50 for CCCC(C)COc1ccc([C@H](CN(C)C)NC(=O)[C@@H](C)c2ccccc2)cc1 (mixture of isomers) .
Result: 29

Q: Moving on to the next compound: CCCC(C)COc1ccc([C@H](CO)NC(=O)N(CC)Cc2ccccc2)cc1 (mixture of isomers)
Result: 1500

Q: Moving on to the next compound: COc1ccc([C@H](CO)NC(=O)[C@@H](C)c2ccccc2)cc1
Result: 410

Q: Moving on to the next compound: CCCC(C)COc1ccc([C@H](CN2CCOCC2)NC(=O)[C@@H](C)c2ccccc2)cc1 (mixture of isomers)
Result: 91

----------
- ASSAY NOTES: Volume of distribution at steady state in mouse at 1 mg/kg, iv
- Format: ADME, organism-based
- Set-up: dose 1 mg/kg, route intravenous
- CONDITION INFO: in vivo, read-out: Vdss
EXPERIMENTAL READOUT: Vd (L/kg)
Form entry: value (L/kg) — number only.

Q: I would be grateful if you could share the reported Vd for Cc1ccc(-c2ccc([C@H](CO)NC(=O)[C@H]3C[C@@H]3c3cccs3)cc2)cc1 .
Result: 2.17

----------
- SYSTEM TESTED: G protein-coupled receptor 88 (Homo sapiens, UniProt Q9GZN0)
- ASSAY NOTES: Agonist activity at GPR88 (unknown origin) transfected in forskolin-stimulated HEK cells assessed as inhibition of cAMP production after 30 mins by HTRF method relative to control
- Type: functional, cell-based, HEK293
The label is y for EC50 below 300 nM and n for EC50 equal to or exceeding 300 nM.

Q: Bench note: check whether CC[C@H](C)COc1ccc([C@H](CO)NC(=O)[C@@H](C)c2ccccc2)c(C)n1 shows EC50 below 300 nM
Result: y

Q: Moving on to the next compound: CCCC(C)COc1ccc([C@H](CO)NC(=O)[C@@H](NC)c2ccccc2)cc1 (mixture of isomers)
Result: n

Q: Moving on to the next compound: CCCC(C)COc1ccc([C@H](CO)NC(=O)C(CO)c2ccccc2)cc1 (mixture of isomers)
Result: n

Q: Moving on to the next compound: CC[C@H](C)COc1cc(C)c([C@H](CO)NC(=O)[C@@H](C)c2ccccc2)c(C)c1
Result: y

Q: Moving on to the next compound: CCCC(C)COc1ccc([C@H](CO)NC(=O)[C@H]2C[C@@H]2c2ccccc2)cc1 (mixture of isomers)
Result: n

Q: Moving on to the next compound: CCCC(C)COc1ccc([C@H](CN2CCN(C)CC2)NC(=O)[C@@H](C)c2ccccc2)cc1 (mixture of isomers)
Result: y

Q: Moving on to the next compound: CC[C@H](C)COc1ccc([C@H](CO)NC(=O)[C@H]2C[C@@H]2c2cccs2)cc1
Result: n

Q: Moving on to the next compound: CC[C@H](C)COc1ccc([C@H](CO)NC(=O)[C@@H](C)c2ccccc2)c(C)c1
Result: y

----------
- SYSTEM TESTED: G protein-coupled receptor 88 (Homo sapiens)
- ASSAY NOTES: Agonist activity at GPR88 (unknown origin) transfected in forskolin-stimulated HEK cells assessed as inhibition of cAMP production after 30 mins by HTRF method relative to control
- Type: functional, cell-based, HEK293
Kindly supply the reported pEC50 values for the records listed here.
# pEC50 is unitless: minus log10 of the molar concentration; print number only

Q: I would be grateful if you could share the reported pEC50 for CC[C@H](C)COc1ccc([C@H](CO)NC(=O)[C@@H](C)c2ccccc2)cc1 .
Result: 6.72

Q: Moving on to the next molecule: CC(C)COc1ccc([C@H](CO)NC(=O)[C@H]2C[C@@H]2c2cccs2)cc1
Result: 6.16

Q: Moving on to the next molecule: CC(C)COc1ccc([C@H](CO)NC(=O)[C@@H](C)c2ccccc2)cc1
Result: 6.30

Q: Moving on to the next molecule: CC[C@H](C)COc1ccc([C@H](CO)NC(=O)[C@@H](C)c2ccccc2)c(F)c1
Result: 6.34

Q: Moving on to the next molecule: CCCC(C)COc1ccc([C@H](CN)NC(=O)[C@@H](C)c2ccccc2)cc1 (mixture of isomers)
Result: 6.96

Q: Moving on to the next molecule: O=C(N[C@@H](CO)c1ccc2ccccc2c1)[C@H]1C[C@@H]1c1ccccc1
Result: 5.60

Q: Moving on to the next molecule: CCCC(C)COc1ccc([C@H](CN2CCCC2)NC(=O)[C@@H](C)c2ccccc2)cc1 (mixture of isomers)
Result: 6.24

Q: Moving on to the next molecule: Cc1ccc(-c2ccc([C@H](CO)NC(=O)[C@H]3C[C@@H]3c3cccs3)cc2)cc1
Result: 7.03

Q: Moving on to the next molecule: CCCC(C)COc1ccc([C@H](CO)NC(=O)c2ccccc2)cc1 (mixture of isomers)
Result: 6.77

Q: Moving on to the next molecule: CC[C@H](C)COc1ccc([C@H](CO)NC(=O)[C@@H](C)c2ccccc2)c(OC)c1
Result: 6.72

Q: Moving on to the next molecule: O=C(NC(CO)c1ccc2ccccc2c1)[C@@H]1C[C@H]1c1ccccc1 (mixture of isomers)
Result: 5.22
